Test system: RXF 393 renal
assay.explanation: NCI tumour cell line growth inhibition, 48 h
For each record, write down the corresponding TGI.
Answers are plain numbers, in µM.

O=C(NCCc1ccccc1)Nc1ccc2cc3ccc(NC(=O)NCCc4ccccc4)cc3nc2c1: 6.49

// each listed compound needs a value for TGI
1. CC(C)c1ccc(C2NC(=S)NC3=C2c2ccccc2C3=O)cc1 (stereo unspecified)
2. CCOC(=O)Nc1sc2c(c1C#N)CC(C)CC2 (stereo unspecified)
3. O=C(Cc1nc2sc3c(c2c(=O)[nH]1)CCCC3)Nc1ccccc1
4. Cc1cccc(NC(=O)O/N=C(\Cl)C(C)C)c1
5. CCOC(=O)Nc1nc2ccccc2[nH]1
6. N#Cc1ccc(-c2c(-c3ncn[nH]3)sc(N3CCOCC3)c2C#N)c(F)c1

Reply:
23.9
70.2
69.9
26.9
43.6
1.68
